tested on: recombinant NL4-3 virus (Renilla luciferase in nef, Gag P373S; NLRluc) in MT-2 cells; test: whole plant or invertebrate; format: cell-based, HIV; conditions: Renilla, NL43, luciferase activity in cells infected for 4-5 days with NLRluc recombinants, serial dilutions of inhibitor; class symbols (key in Table 1); read-out: EC50
pEC50: −log10 of the molar value.
pEC50 listing for selected molecules.

# Molecule, pEC50
data = [
    ("C=C(C)[C@@H]1CC[C@]2(NCCCN(C)C)CC[C@]3(C)[C@H](CC[C@@H]4[C@@]5(C)CC=C(c6ccc(C(=O)O)cc6)C(C)(C)[C@@H]5CC[C@]43C)[C@@H]12", "> 7.00"),
]

Q: Give reported pEC50 value for C=C(C)[C@@H]1CC[C@]2(NC(=O)N(C)CCn3ccc4ccccc43)CC[C@]3(C)[C@H](CC[C@@H]4[C@@]5(C)CC=C(c6ccc(C(=O)O)cc6)C(C)(C)[C@@H]5CC[C@]43C)[C@@H]12
Ans: > 7.00

---

pEC50 listing for selected compounds.
test system: recombinant NL4-3 virus (Renilla luciferase in nef, Gag P373S; NLRluc) in MT-2 cells; test: whole plant or invertebrate; assay type: cell-based, HIV; conditions: Renilla, NL43, luciferase activity in cells infected for 4-5 days with NLRluc recombinants, serial dilutions of inhibitor; class symbols (key in Table 1); read-out: EC50
pEC50: −log10 of the molar value.

In the examples that follow, each entry is paired with its recorded pEC50.
# Compound, pEC50
data = [
    ("C=C(C)[C@@H]1CC[C@]2(NCc3ccco3)CC[C@]3(C)[C@H](CC[C@@H]4[C@@]5(C)CC=C(c6ccc(C(=O)O)cc6)C(C)(C)[C@@H]5CC[C@]43C)[C@@H]12 [Example 155]", "> 7.00"),
    ("C=C(C)[C@@H]1CC[C@]2(NC(=O)C(NC3CCS(=O)(=O)C3)C(C)C)CC[C@]3(C)[C@H](CC[C@@H]4[C@@]5(C)CC=C(c6ccc(C(=O)O)cc6)C(C)(C)[C@@H]5CC[C@]43C)[C@@H]12 (stereo partly drawn) [Example 112]", "> 7.00"),
    ("C=C(C)[C@@H]1CC[C@]2(NCCN3CCN(C(=O)C4CCCC4)CC3)CC[C@]3(C)[C@H](CC[C@@H]4[C@@]5(C)CC=C(c6ccc(C(=O)O)cc6)C(C)(C)[C@@H]5CC[C@]43C)[C@@H]12 [Example B55]", "> 7.00"),
    ("C=C(C)[C@@H]1CC[C@]2(NC(=O)CN(C(C)C)C(C)C)CC[C@]3(C)[C@H](CC[C@@H]4[C@@]5(C)CC=C(c6ccc(C(=O)O)cc6)C(C)(C)[C@@H]5CC[C@]43C)[C@@H]12 [Example 123]", "> 7.00"),
    ("C=C(C)[C@@H]1CC[C@]2(NCCN3CCN(C(=O)CC)CC3)CC[C@]3(C)[C@H](CC[C@@H]4[C@@]5(C)CC=C(c6ccc(C(=O)O)cc6)C(C)(C)[C@@H]5CC[C@]43C)[C@@H]12 [Example B60]", "> 7.00"),
    ("C=C(C)[C@@H]1CC[C@]2(NCCN3CCN(S(=O)(=O)c4ccc(C(=O)O)cc4)CC3)CC[C@]3(C)[C@H](CC[C@@H]4[C@@]5(C)CC=C(c6ccc(C(=O)O)cc6)C(C)(C)[C@@H]5CC[C@]43C)[C@@H]12 [Example B51]", "> 7.00"),
    ("C=C(C)[C@@H]1CC[C@]2(NCCCN3CCS(=O)(=O)CC3)CC[C@]3(C)[C@H](CC[C@@H]4[C@@]5(C)CC=C(c6ccc(C(=O)O)cc6)C(C)(C)[C@@H]5CC[C@]43C)[C@@H]12 [Example 144]", "> 7.00"),
    ("C=C(C)[C@@H]1CC[C@]2(NCCN3CCN(S(=O)(=O)c4cccc5ccccc45)CC3)CC[C@]3(C)[C@H](CC[C@@H]4[C@@]5(C)CC=C(c6ccc(C(=O)O)cc6)C(C)(C)[C@@H]5CC[C@]43C)[C@@H]12 [Example B49]", "> 7.00"),
]

Kindly review the next compound as well.
Q: Give reported pEC50 value for C=C(C)[C@@H]1CC[C@]2(NCCNc3ncccn3)CC[C@]3(C)[C@H](CC[C@@H]4[C@@]5(C)CC=C(c6ccc(C(=O)O)cc6)C(C)(C)[C@@H]5CC[C@]43C)[C@@H]12 [Example 199]
Ans: > 7.00

---

pEC50 listing for selected compounds.
tested on: recombinant NL4-3 virus (Renilla luciferase in nef, Gag P373S; NLRluc) in MT-2 cells; assay: whole plant or invertebrate; assay type: cell-based, HIV; details: Renilla, NL43, luciferase activity in cells infected for 4-5 days with NLRluc recombinants, serial dilutions of inhibitor; class symbols (key in Table 1); read-out: EC50
pEC50: −log10 of the molar value.

In the examples that follow, each entry is paired with its recorded pEC50.
# Molecule, Experimental Value
measured = [
    ("C=C(C)[C@@H]1CC[C@]2(N)CC[C@]3(C)[C@H](CC[C@@H]4[C@@]5(C)CC=C(c6ccc(C(=O)O)c(F)c6)C(C)(C)[C@@H]5CC[C@]43C)[C@@H]12", "> 7.00"),
    ("C=C(C)[C@@H]1CC[C@]2(NCCO)CC[C@]3(C)[C@H](CC[C@@H]4[C@@]5(C)CC=C(c6ccc(C(=O)O)cc6)C(C)(C)[C@@H]5CC[C@]43C)[C@@H]12", "> 7.00"),
    ("C=C(C)[C@@H]1CC[C@]2(NCCN3CCN(C(=O)CC4CCCCC4)CC3)CC[C@]3(C)[C@H](CC[C@@H]4[C@@]5(C)CC=C(c6ccc(C(=O)O)cc6)C(C)(C)[C@@H]5CC[C@]43C)[C@@H]12", "> 7.00"),
]

Kindly review the next compound as well.
Q: Give reported pEC50 value for C=C(C)[C@@H]1CC[C@]2(NCCNc3cccc(SC)n3)CC[C@]3(C)[C@H](CC[C@@H]4[C@@]5(C)CC=C(c6ccc(C(=O)O)cc6)C(C)(C)[C@@H]5CC[C@]43C)[C@@H]12
Ans: > 7.00

---

tested on: recombinant NL4-3 virus (Renilla luciferase in nef, Gag P373S; NLRluc) in MT-2 cells; assay: whole plant or invertebrate; assay type: cell-based, HIV; conditions: Renilla, NL43, luciferase activity in cells infected for 4-5 days with NLRluc recombinants, serial dilutions of inhibitor; class symbols (key in Table 1); read-out: EC50
Parameter: EC50

In the examples that follow, each entry is paired with its recorded EC50.
# Molecule, EC50
records = [
    ("C=C(C)[C@@H]1CC[C@]2(NCCN3CCN(C(=O)OC(C)(C)C)CC3)CC[C@]3(C)[C@H](CC[C@@H]4[C@@]5(C)CC=C(c6ccc(C(=O)O)cc6)C(C)(C)[C@@H]5CC[C@]43C)[C@@H]12", "< 100 nM"),
    ("C=C(C)[C@@H]1CC[C@]2(NCC(=O)NC(C)C)CC[C@]3(C)[C@H](CC[C@@H]4[C@@]5(C)CC=C(c6ccc(C(=O)O)cc6)C(C)(C)[C@@H]5CC[C@]43C)[C@@H]12", "< 100 nM"),
    ("C=C(C)[C@@H]1CC[C@]2(NC(=O)C(=O)O)CC[C@]3(C)[C@H](CC[C@@H]4[C@@]5(C)CC=C(c6ccc(C(=O)O)cc6)C(C)(C)[C@@H]5CC[C@]43C)[C@@H]12", "> 100 nM"),
]

Q: Give reported EC50 value for C=C(C)[C@@H]1CC[C@]2(NCCN3CCSCC3)CC[C@]3(C)[C@H](CC[C@@H]4[C@@]5(C)CC=C(c6ccc(C(=O)O)cc6)C(C)(C)[C@@H]5CC[C@]43C)[C@@H]12
Ans: < 100 nM

---

system: recombinant NL4-3 virus (Renilla luciferase in nef, Gag P373S; NLRluc) in MT-2 cells; assay: whole plant or invertebrate; format: cell-based, HIV; settings: Renilla, NL43, luciferase activity in cells infected for 4-5 days with NLRluc recombinants, serial dilutions of inhibitor; class symbols (key in Table 1); read-out: EC50
EC50 listing for selected compounds.

In the examples that follow, each entry is paired with its recorded EC50.
# Compound, Experimental System, EC50
records = [
    ("C=C(C)[C@@H]1CC[C@]2(Nc3nc(C(C)(C)C)cs3)CC[C@]3(C)[C@H](CC[C@@H]4[C@@]5(C)CC=C(c6ccc(C(=O)O)cc6)C(C)(C)[C@@H]5CC[C@]43C)[C@@H]12 [Example 185]", "recombinant NL4-3 virus (Renilla luciferase in nef, Gag P373S; NLRluc) in MT-2 cells", "> 100 nM"),
    ("C=C(C)[C@@H]1CC[C@]2(NC(=O)OCCCCN3CCS(=O)(=O)CC3)CC[C@]3(C)[C@H](CC[C@@H]4[C@@]5(C)CC=C(c6ccc(C(=O)O)cc6)C(C)(C)[C@@H]5CC[C@]43C)[C@@H]12 [Example 72]", "recombinant NL4-3 virus (Renilla luciferase in nef, Gag P373S; NLRluc) in MT-2 cells", "< 100 nM"),
    ("C=C(C)[C@@H]1CC[C@]2(N)CC[C@]3(C)[C@H](CC[C@@H]4[C@@]5(C)CC=C(c6ccc(C(=O)O)cc6)C(C)(C)[C@@H]5CC[C@]43C)[C@@H]12 [Example 1]", "recombinant NL4-3 virus (Renilla luciferase in nef, Gag P373S; NLRluc) in MT-2 cells", "< 100 nM"),
]

Kindly review the next compound as well.
Q: Under recombinant NL4-3 virus (Renilla luciferase in nef, Gag P373S; NLRluc) in MT-2 cells: report EC50 of C=C(C)[C@@H]1CC[C@]2(NC(=O)N3CCN(C(=O)OC(C)(C)C)CC3CO)CC[C@]3(C)[C@H](CC[C@@H]4[C@@]5(C)CC=C(c6ccc(C(=O)O)cc6)C(C)(C)[C@@H]5CC[C@]43C)[C@@H]12 (mixture of isomers) [Example 61] .
Ans: < 100 nM

All values here come from patent US20140343000A1.
